B1: FBXO3 (parent)
chain: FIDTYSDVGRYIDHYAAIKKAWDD

Variants of: B1
method: protein stability index of a GFP-peptide fusion (GPS, HEK-293T) (PSI 1-6); higher = more stable;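 further: lentivirally expressed fusions sorted by FACS into six bins by GFP to DsRed ratio, PSI derived from sequencing read proportions per bin multiplied by bin number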
test.parameters: c terminus: a fixed tail appended
Is protein stability index at least 2? Then YES. If not, NO.

variant.string	qualitative.label
T4S	NO
H14Q	NO
D23P	YES
A21I	YES
A17L	NO
K19H	YES
K20C	YES
K19E	NO
D7E	NO
H14E	NO
Y11C	NO
D7R	YES
D7I	NO
H14N	NO
R10H	NO
A16C	YES
F1H	YES
Y11A	NO
D23Q	NO
D3E	YES
A21L	NO
H14R	YES
Y15G	NO
A17I	NO
I18W	NO
S6H	YES
Y5R	YES
Y15C	YES
I2G	YES
D3M	YES
